target: Cytochrome P450 2C9 (Homo sapiens) (UniProt P11712); test: Cytochrome P450 Family 2 Subfamily C Member 9 (CYP2C9) small molecule antagonists: luciferase reporter qHTS assay (AID 1671198); details: P450-Glo CYP2C9 enzyme assay, luciferin luminescence; series mostly up to 115 µM; also: nearly all actives have a fitted effect of over 50% in size
Sequence (P11712 whole entry, looked up): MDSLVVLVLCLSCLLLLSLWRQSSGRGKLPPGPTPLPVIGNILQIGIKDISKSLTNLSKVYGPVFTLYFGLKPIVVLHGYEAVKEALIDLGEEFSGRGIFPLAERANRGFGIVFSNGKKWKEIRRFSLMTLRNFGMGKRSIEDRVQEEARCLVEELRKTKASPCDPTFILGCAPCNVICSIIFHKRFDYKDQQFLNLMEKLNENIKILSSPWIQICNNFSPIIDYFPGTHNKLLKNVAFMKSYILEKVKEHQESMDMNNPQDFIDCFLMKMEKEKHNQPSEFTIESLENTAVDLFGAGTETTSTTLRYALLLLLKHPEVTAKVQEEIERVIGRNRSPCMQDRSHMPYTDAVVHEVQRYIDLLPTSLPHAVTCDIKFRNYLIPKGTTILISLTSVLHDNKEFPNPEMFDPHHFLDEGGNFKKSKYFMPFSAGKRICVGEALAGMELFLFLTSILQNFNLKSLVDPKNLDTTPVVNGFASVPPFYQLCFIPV
Results filed as inconclusive are left out. Activity calls are given as the source filed them. Calls follow the shape of the dose curve; as a rule, active = well fitted inhibition curve with a large enough effect in the repeat runs; inconclusive = weak or mixed curves; inactive = no such curve, though single readings can be large or run the other way.
Outcome codes: active, inactive

compound	labelClass
O=C(O)Cc1cccc2ccccc12	inactive
CCCCCCCCCCCCCC(=O)OC(C)C	inactive
COCCOCCOC	inactive
CCCCCCCCOc1ccc(C(=O)c2ccccc2)c(O)c1	active
O=C(O)CCCCC1CCSS1 (centres undefined)	inactive
NC(=O)OCC(COC(N)=O)c1ccccc1	inactive
COc1ccccc1NC(=O)CC(C)=O	inactive
O=C1CCCCCN1	inactive
CCCCOCCOCCSC#N	inactive
CCOCCO	inactive
CC(=O)Oc1ccccc1C(=O)O	inactive
Nc1cccc(N)c1	active
NC(=O)N1c2ccccc2C=Cc2ccccc21	inactive
Cc1c(N(C)C)c(=O)n(-c2ccccc2)n1C	inactive

====

test: qHTS assay for identifying genotoxic compounds that show differential cytotoxicity against isogenic chicken DT40 cell lines with known DNA damage response pathways - Rad54/Ku70 mutant cell line (AID 743015); conditions: DT40 Rad54/Ku70 mutant viability, CellTiter-Glo, 40 h; series mostly up to 66.8 µM; also: nearly all actives have a fitted effect of over 60% in size
Results filed as inconclusive are left out. The source made the active and inactive calls. The call rests on the fitted dose curve; in most records, active means well fitted cell-killing curve with a large enough effect in the repeat runs; inconclusive means weak or mixed curves; inactive means no such curve, though single readings can be large or run the other way.
Outcomes: 1.0 for active, 0.0 for inactive

compound	labelClass
NC(=O)c1ccc([N+](=O)[O-])cc1Cl	0.0
C[C@]12CC[C@@H]3c4ccc(O)cc4C[C@@H](CCCCCCCCCS(=O)CCCC(F)(F)C(F)(F)F)[C@H]3[C@@H]1CC[C@@H]2O (stereo not given in full)	1.0
Cc1cccc2ccccc12	0.0
CN/C(=C\[N+](=O)[O-])NCCSCc1ccc(CN(C)C)o1	0.0
NC(=O)NO	0.0
C/C=C/c1ccc(O)c(OC)c1	0.0
Cc1cccc(C)c1O	0.0
Nc1ccc(N=Nc2ccccc2)c(N)n1	1.0
CC(C)CC(C)CC(O)CC(C)C (stereo not given)	0.0
C=C(C)OC(C)=O	0.0
COc1ccccc1NC(=O)CC(C)=O	0.0
CCCCCCCC(=O)OCC(O)CO (stereo not given)	0.0
COc1ccccc1O	0.0
COc1cc(O)c(C(=O)c2ccccc2)cc1S(=O)(=O)O	0.0
NC(N)=NC(N)=NCCc1ccccc1	1.0
CCn1cc(C(=O)O)c(=O)c2ccc(C)nc21	0.0
N[C@@H](Cc1c[nH]c2ccccc12)C(=O)O	0.0
Cc1cccc(Nc2cc(Cl)nc(SCC(=O)O)n2)c1C	0.0
CCCCOCCOCCSC#N	0.0
CC(=O)CCC(C)C	0.0

====

molecular target: Estrogen receptor beta (Homo sapiens) (UniProt Q92731); assay: qHTS assay to identify small molecule antagonists of the estrogen receptor beta (ER-beta) signaling pathway (AID 1259378); conditions: ER-beta-UAS-bla HEK293T, beta-lactamase FRET ratio, 16 h; series mostly up to 92.4 µM
Sequence (Q92731 whole entry, looked up): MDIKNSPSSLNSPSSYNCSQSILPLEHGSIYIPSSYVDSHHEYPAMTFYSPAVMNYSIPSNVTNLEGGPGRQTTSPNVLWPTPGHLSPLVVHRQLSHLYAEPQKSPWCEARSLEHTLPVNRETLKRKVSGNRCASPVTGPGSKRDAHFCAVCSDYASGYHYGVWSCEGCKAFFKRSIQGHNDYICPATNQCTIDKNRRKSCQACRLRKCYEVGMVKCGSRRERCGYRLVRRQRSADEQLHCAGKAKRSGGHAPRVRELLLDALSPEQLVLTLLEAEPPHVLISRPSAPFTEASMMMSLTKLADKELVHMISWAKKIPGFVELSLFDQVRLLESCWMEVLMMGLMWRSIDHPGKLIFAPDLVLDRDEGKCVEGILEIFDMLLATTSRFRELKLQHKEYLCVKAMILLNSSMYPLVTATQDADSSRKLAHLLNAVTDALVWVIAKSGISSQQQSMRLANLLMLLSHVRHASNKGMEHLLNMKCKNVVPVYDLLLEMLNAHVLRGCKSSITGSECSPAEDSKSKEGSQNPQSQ
Records with an inconclusive call do not appear. Active and inactive are the calls of the source. Calls come from the whole dose curve; as a rule, active = well fitted inhibition curve with a large enough effect in the signal ratio in the repeat runs (not every such curve was filed as active); inconclusive = weak or mixed curves, or effect the other way; inactive = no such curve, though single readings can be large or run the other way; the % refers to the signal ratio.
Outcomes: 1 for active, -1 for inactive

compound	labelClass
CC(C)(C)NCC(O)c1ccc(O)c(CO)c1 (stereo not drawn)	-1
CC1=NN(c2ccccc2)C(=O)C1	-1
O=c1cc[nH]c(=O)[nH]1	-1
CCn1cc(C(=O)O)c(=O)c2ccc(C)nc21	-1
Nc1cccc(N)c1	-1
COc1ccc(C(=O)c2ccccc2)c(O)c1	-1
C[C@]12C=CC(=O)C=C1CC[C@@H]1[C@@H]2C(=O)C[C@@]2(C)[C@H]1CC[C@]2(O)C(=O)CO	-1
Cc1c(N(C)C)c(=O)n(-c2ccccc2)n1C	-1
CCCCOCCOCCSC#N	-1
COCC(C)N (stereo not drawn)	-1
NC(=O)NO	-1
CCCCNC(=O)NS(=O)(=O)c1ccc(N)cc1	-1
O=C1OC(c2ccc(O)cc2)(c2ccc(O)cc2)c2ccccc21	1
Oc1cccc(O)c1	-1
CO[C@H]1C=CO[C@@]2(C)Oc3c(C)c(O)c4c(O)c(c(/C=N/N5CCN(C)CC5)c(O)c4c3C2=O)NC(=O)/C(C)=C\C=C[C@H](C)[C@H](O)[C@@H](C)[C@@H](O)[C@@H](C)[C@H](OC(C)=O)[C@@H]1C	-1
COc1cc(O)c(C(=O)c2ccccc2)cc1S(=O)(=O)O	-1
c1ccc2[nH]c(-c3cscn3)nc2c1	-1
Nc1ccc(N=Nc2ccccc2)c(N)n1	1
